Attribution: ChEMBL document CHEMBL1148074

Measured selectivity ratio of individual entries
# protocol details: Selectivity index, ratio of ED50 for human KB cells to ED50 for chloroquine-sensitive Plasmodium falciparum D6
# Type: toxicity, cell-based
# condition set: read-out: Selectivity Index
When you answer, write just the number.

1) COc1cc2c(cc1O)CCN(C)[C@H]2Cc1ccc(Oc2c(O)c(OC)cc3c2C[C@H]2c4c(c(OC)c(OC)c(OC)c4-3)CCN2C)cc1	6.5
2) OC(c1cc(C(F)(F)F)nc2c(C(F)(F)F)cccc12)C1CCCCN1 (stereo not drawn)	393

May I ask what selectivity ratio has been recorded for `COc1cc2c(c(O)c1OC)CCN(C)[C@H]2Cc1ccc(Oc2c3c(cc(OC)c2OC)-c2c(OC)c(OC)c(O)c4c2[C@H](C3)N(C)CC4)cc1` ? 19
